Every entry's value here was drawn from PubChem BioAssay (NCI).

Test system: SNB-19 CNS
Test: NCI-60 one-dose screen, 48 h (100 = growth as untreated, 0 = no growth, -100 = all killed)
Details: 10 µM unless noted
Experimental: Growth inhibition of the SNB-19 human tumor cell line is measured as a screen for anti-cancer activity. Cells are grown in 96 well plates and exposed to the test compound for 48 hours. Compounds are tested at a single concentration, which is 10^-5 M for most compounds. The reported endpoint is percent growth (GI% or GIPRCNT), where numbers from 0 - 100% represent growth inhibition, and numbers from -100% - 0 represent cell death. For example, a value of 40 represents 60% growth inhibition. […]
This is part of a sample that, as a whole, favours compounds with a hit. Of some 83,000 tested, about 20% had one in any assay.
Measured growth of individual entries

Compound: COc1ccc([C@H](C)Nc2nc(Cl)nc3ccccc23)cc1
growth, %: 60.6
--
Compound: COc1ccc(NC(=O)Cn2c(/C=C/c3cccc([N+](=O)[O-])c3)nc3ccccc3c2=O)cc1
growth, %: 72.9
--
Compound: N#Cc1c(-c2ccccc2Cl)cc(-c2c[nH]c3ccccc23)[nH]c1=O
growth, %: 69.5
--
Compound: Cn1cc(-c2cc(N)n3nc(-c4cn(C)c5ccccc45)cc3n2)c2cc(Cl)ccc21
growth, %: -0.728
--
Compound: COc1ccc2[nH]cc(-c3nc(N)nnc3-c3cn(C)c4ncccc34)c2c1
growth, %: 63.8
--
Compound: O=C(/C=C/c1ccc(O)c(O)c1)NC1CCOC1O (stereo not drawn)
growth, %: 98.8
--
Compound: C=C1CCC2C3(C)COC(c4ccccc4)OC3CCC2(C)C1CC(Sc1ccccc1)C1=CCOC1=O (stereo not drawn)
growth, %: 85.5
--
Compound: C=C1CCC2C3(C)COC(c4cccc(F)c4)OC3CCC2(C)C1C/C=C1/C(=O)OCC1O (stereo not drawn)
growth, %: 30.1
--
Compound: O=C(/C=C/c1cccc(OCc2ccccc2)c1)c1nc2ccccc2[nH]1
growth, %: 53.6
--
Compound: C(=C\c1cc(/C=C/c2ccccc2)c2ccccc2n1)/c1ccccc1
growth, %: 97.7
--
Compound: COc1cccc(/C=C/c2nc3ccccc3c(=O)n2CC(=O)Nc2ccc(Cl)cc2)c1
growth, %: 76.3
--
Compound: Cn1cc(-c2cc3nc(-c4cn(C)c5ncccc45)cc(N)n3n2)c2ccccc21
growth, %: 37.7
--
Compound: COc1ccc(C(=O)/C=C/c2cc3c(cc2Br)OCO3)cc1S(N)(=O)=O
growth, %: 6.32
--
Compound: O=c1c2ccccc2nc(-c2ccccc2)n1/N=C/c1ccc2ccccc2c1
growth, %: 56.8
--
Compound: O=C(O)c1ccc(-c2ccc(/C=N/NC(=O)c3[nH]c4ccc(Br)cc4c3-c3ccccc3)s2)cc1
growth, %: 14.4
--
Compound: COc1ccc(C(=O)/C=C/c2ccccc2Cl)cc1S(N)(=O)=O
growth, %: 97.4
--
Compound: COc1ccc(NC(=O)Nc2ccc(OCc3ccc(F)cc3)cc2)cc1
growth, %: 46.9
--
Compound: COc1ccc2nc(Nc3cccc(NC(=O)c4ccc(CN5CCCN(C)CC5)c(C(F)(F)F)c4)c3)ccc2c1
growth, %: -76.4
--
Compound: COc1ccc(-c2nc3cc(C)ccc3n2CC(=O)N=Nc2c(O)[nH]c3ccc(OC)cc23)cc1
growth, %: 4.91
--
Compound: CCOC(=O)C1=C(N)N(c2ccccc2)C2=C(C(=O)CC(C)(C)C2)C1c1ccc([N+](=O)[O-])cc1 (stereo not drawn)
growth, %: 94
--
Compound: COc1ccc(NC(=O)c2sc3nc(C(C)C)ccc3c2N)cc1
growth, %: 91.4
--
Compound: COc1cc2oc(-c3cccc(C(=O)Nc4ccc(Cl)cc4)c3)cc(=O)c2c(OCCNC(=O)[C@H](CO)NC(=O)OC(C)(C)C)c1OC
growth, %: 29.7
--
Compound: COc1ccc2c(c1)c(-c1cc3nc(-c4cn(C)c5ncc(Br)cc45)cc(N)n3n1)cn2C
growth, %: -16.9
--
Compound: CCOC(=O)c1ccc(Nc2nc(NN)nc(-c3ccc(OC)cc3)c2C#N)cc1
growth, %: 92.2
--
Compound: COc1ccc(Cc2nn(CC(=O)N/N=C/c3ccc(F)cc3)c(=O)c3c(C)noc23)cc1
growth, %: 20.1
--
Compound: COc1ccc2[nH]cc(-c3cc(N)n4nc(-c5cn(C)c6ccccc56)cc4n3)c2c1
growth, %: -48.4
--
Compound: COc1ccc(-c2ccnc(SCc3cc4ccccc4[nH]c3=O)n2)cc1OC
growth, %: -7.41
--
Compound: COc1ccc(C2=NN(c3ccccc3)C(c3ccc(OCc4ccccc4)c(OC)c3)C2)cc1OC (stereo not drawn)
growth, %: 98.9
--
Compound: CCN(CC)c1ccc(/C=N/Nc2nc(-c3ccc(Br)cc3)cs2)c(O)c1
growth, %: 107
--
Compound: CC1=C(C(=O)OCc2ccccc2)C(c2c(O)cc(O)cc2O)n2c(nc3ccccc32)N1 (stereo not drawn)
growth, %: 59.7
--
Compound: COC(OC)C1=C(C)OC(N)=C(C#N)C12C(=O)Nc1ccccc12 (stereo not drawn)
growth, %: 97
--
Compound: CC1(c2cc3cc(Br)ccc3oc2=O)NC(=O)c2c(/C=C/C(=O)OC3CC4CCC3(C)C4(C)C)cccc2N1 (stereo not drawn)
growth, %: 72
--
Compound: Cn1cc(-c2nnc(N)nc2-c2c[nH]c3ccc(F)cc23)c2cccnc21
growth, %: 52.2
--
Compound: O=C(COc1ccc2c(c1)CCCC(=O)N2)NCc1ccccc1
growth, %: 89
--
Compound: COc1cc2oc(-c3cccc(C(=O)Nc4ccc(Cl)cc4)c3)cc(=O)c2c(OCCNC(=O)[C@H](CCC(=O)OC(C)(C)C)NC(=O)OC(C)(C)C)c1OC
growth, %: 94.8
--
Compound: COc1ccc2c(c1)c(/C=N/Nc1ccc3ccccc3n1)cn2C
growth, %: 71.3
--
Compound: CC(C)C(C(=O)O)n1c(O)c(/C=C2/C=c3cc4c(cc3=NC2=O)OCO4)sc1=S (stereo not drawn)
growth, %: 94.4
--
Compound: Cc1ccccc1[C@H]1C(C(=O)c2ccc(Cl)cc2)C2(N[C@@H]1c1ccccc1)C(=O)Nc1ccc(Br)cc12 (stereo partly drawn)
growth, %: 38.4

====

Measured growth, listed per entry for reference.
System: ACHN renal
Assay: NCI-60 one-dose screen, 48 h (100 = growth as untreated, 0 = no growth, -100 = all killed)
Details: 10 µM unless noted
The panel holds about 83,000 compounds, 20% with a hit somewhere; the sample as a whole holds those more often. Active and inactive are the calls of the source. The calls were made as follows: active = growth percent below 10; inactive = the rest.
Reported Property: growth

Compound: CN(C)CCn1c2ccccc2c2nc3cc(C(F)(F)F)ccc3nc21
Data Value: 13.5% (inactive)
--
Compound: COc1cc2c(c(OC)c1OC)C(=O)CC(c1cccc(NC(=O)[C@@H](N)CC(C)C)c1)O2 (some centres undefined)
Data Value: 103% (inactive)
--
Compound: COc1ccc(NC(=O)[C@H](CO)NC(=O)OC(C)(C)C)cc1C(=O)Nc1cccc(C2CC(=O)c3c(cc(OC)c(OC)c3OC)O2)c1 (some centres undefined)
Data Value: 56.2% (inactive)
--
Compound: CCCCCCCS(=O)(=O)N1CCCC(C(=O)Nc2nc3ccc(NC(=O)c4ccc(F)c(OC)c4F)cc3s2)C1 (centres undefined)
Data Value: 53% (inactive)
--
Compound: O=C(CN1C(=O)/C(=C/c2ccccc2Cl)SC1=S)N1CCOCC1
Data Value: 61.2% (inactive)
--
Compound: CC(=O)Oc1ccc(/C=C/C(=O)N[C@@H](Cc2ccccc2)C(O)C(=O)NCc2ccccc2)cc1OC(C)=O (some centres undefined)
Data Value: 85.5% (inactive)
--
Compound: COc1ccc(NC(=O)Cn2c(O)c(N=Nc3ccc(S(N)(=O)=O)cc3)c3ccccc32)cc1
Data Value: 35.2% (inactive)
--
Compound: Nc1cccc(SCc2cc3ccccc3[nH]c2=O)c1
Data Value: 17.6% (inactive)
--
Compound: COc1c(F)ccc(C(=O)Nc2ccc3nc(NC(=O)C4CCCN(S(=O)(=O)c5cccc(C(F)(F)F)c5)C4)sc3c2)c1F (centres undefined)
Data Value: 83.6% (inactive)

====

Test system: NCI-H522 lung
Assay: NCI-60 one-dose screen, 48 h
Settings: 10 µM unless noted
This is part of a sample that, as a whole, favours compounds with a hit. Of some 83,000 tested, about 20% had one in any assay. The source made the active and inactive calls. The calls were made as follows: active = growth percent below 10; inactive = the rest.
Labels: active, inactive

Compound: CC(=O)OC[C@@]1(C)C2CC[C@]3(C)C(CC=C4C5CC(C)(C)CC[C@]5(C(=O)Nc5ccc(C)cc5)CC[C@]43C)[C@@]2(C)C[C@@H](OC(C)=O)[C@@H]1OC(C)=O (stereo partly drawn)
Tgt: NCI-H522 lung
Category: inactive
//
Compound: CC1(C)CC[C@]2(C(=O)O)CC[C@]3(C)C(=CCC4[C@@]5(C)C[C@@H](O)[C@@H]6OC(c7ccccc7Br)OC[C@@]6(C)C5CC[C@]43C)C2C1 (stereo partly drawn)
Tgt: NCI-H522 lung
Category: inactive
//
Compound: O=C1CCCc2cc(OCC(=O)N3CCCCC3)ccc2N1
Tgt: NCI-H522 lung
Category: inactive
//
Compound: Clc1cccc(N/N=C/c2c[nH]c3ccc(Br)cc23)n1
Tgt: NCI-H522 lung
Category: active
//
Compound: C#CCOc1cc(N(CC)CC)ccc1C(C(=O)NC(C)(C)C)N(C(=O)C1CCc2cc(F)ccc2O1)c1ccc(Br)cc1 (stereo not drawn)
Tgt: NCI-H522 lung
Category: inactive
//
Compound: COc1cc(OC)cc(-c2cc3ccc(N(C)C)cc3c(=O)[nH]2)c1
Tgt: NCI-H522 lung
Category: active
//
Compound: Cn1cc(-c2cc(N)n3nc(-c4c[nH]c5ccccc45)cc3n2)c2cccnc21
Tgt: NCI-H522 lung
Category: inactive
//
Compound: CCOC(=O)C1=C(N)N(c2ccccc2)C2=C(C(=O)CC(C)(C)C2)C1c1ccc(Cl)cc1Cl (stereo not drawn)
Tgt: NCI-H522 lung
Category: inactive
